For each of the molecules below, state its growth inhibition.
assay: NCI Yeast Anticancer Drug Screen. Data for the sgs1 strain (AID 173);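 also: 0% = growth of vehicle-only control cultures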; conditions: S. cerevisiae sgs1 mutant, at 11.0 µM, stronger effect = higher value
This is part of a sample that, as a whole, favours compounds with a hit. Of some 79,000 tested, about 15% had one in any assay.
Just the number in %, nothing appended.

## Task Give recorded growth inhibition. C/C(=N\N=C(N)N)C(CN1CCOCC1)C(c1ccccc1)c1c(O)c2ccccc2oc1=O (centres undefined)
## Result 0

## Task State its growth inhibition for this molecule: "COC(=O)C1=C(C(=O)OC)SC2(S1)C(C(=O)OC)=C(C(=O)OC)Sc1c2ssc1=O"
## Result 87

## Task Please give measured growth inhibition of the following entry: "CCc1cccc(C(C)C)c1NC1=C([n+]2ccc(C)cc2)C(=O)c2ccccc2C1=O"
## Result -2

## Task Please list growth inhibition recorded for the molecule "O=C(NNC(=O)OCC(Cl)(Cl)Cl)OCC(Cl)(Cl)Cl"
## Result 42

## Task // fetch growth inhibition given entry CCCCN(CCCC)CC(C(C)=O)C(c1ccccc1)c1c(O)c2ccccc2oc1=O (centres undefined)
## Result -7

## Task Input "C[C@]12CC[C@H](O)CC1=CC[C@@H]1[C@@H]2CC[C@]2(C)C(=O)CC[C@@H]12" , output reported growth inhibition.
## Result -65

## Task Read off the recorded growth inhibition for "CN(C)CCSC1=Nc2ccc(Cl)cc2C(c2ccccc2Cl)=NC1"
## Result 0

## Task Please look at this molecule and report its growth inhibition: C[CH2][Sn]1([CH2]C)[O]C2C(O)OC(CO)C(O)C2[O]1 (centres undefined)
## Result -8

## Task Provide only the value of recorded growth inhibition for COC1CC(CC2CCC(C)C(C(C)C(=O)O)O2)OC2(OC(C)(C3CCC(C)(C4OC(C5OC(O)(CO)C(C)CC5C)CC4C)O3)CC2C)C1C (centres undefined)
## Result -12

###

assay: NCI Yeast Anticancer Drug Screen. Data for the sgs1 mgt1 strain (AID 161);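 also: 0% = growth of cultures given vehicle only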; conditions: S. cerevisiae sgs1 mgt1 strain, at 50.0 µM (retest, dose inferred, filed as 5.0)
The panel holds about 79,000 compounds, 15% with a hit somewhere; the sample as a whole holds those more often. Activity calls are given as the source filed them. Rule as the data show it: active = growth inhibition above about 70%; inactive = the rest.
Choose the fitting class; nothing outside active, inactive is accepted.

## Task // return assay outcome for "O=[N+]([O-])c1ccc([Se]CCBr)c([N+](=O)[O-])c1"
## Result active

## Task Given "O=C1C(=O)c2cccc3cccc1c23" , state the outcome it received in this test.
## Result inactive

## Task Returns: the outcome recorded for OC1(c2ccccc2)CC2CCC(C1)N2CCCC(O)(c1ccccc1)c1ccccc1 (stereo unspecified) in this assay.
## Result inactive

## Task Returns: the outcome recorded for OCC(O)C(O)CO (stereo unspecified) (tested in a mixture with another compound) in this assay.
## Result inactive

## Task Field: outcome | Entry: "CSc1ccccc1[As](C)C"
## Result active

## Task Returns: the outcome recorded for C=CCOc1cc2c(ccc1=O)-c1c(cc(OC)c(OC)c1OC)CCC2NC(C)=O (stereo unspecified) in this assay.
## Result inactive

## Task Dear all, I need the recorded test outcome for COc1cc(C[C@H]2c3cc(OC)c(OC)c(O)c3CCN2C)c(Oc2cc3c(cc2OC)-c2c(OC)c(OC)c(OC)c4c2C(C3)N(C)CC4)cc1OC (stereo partly specified) (tested in a mixture with another compound) , thank you.
## Result inactive

## Task Just curious, what result did "O=C1NC(=S)NC(=O)C1=C/C=C/c1ccccc1" get here?
## Result active

## Task Short answer needed: outcome of this test for "CS/C([S-])=N/N=C(C)C.CS/C([S-])=N/N=C(C)C.[Ni+2]" ?
## Result active

## Task What did the test return for "S=C(SSC(=S)N1CCCCC1)N1CCCCC1" ?
## Result active

## Task Tell me the recorded outcome of this test for Cc1ccc(S(=O)(=O)OC2CCC3C4CC=C5CC(SC(=N)N)CCC5(C)C4CCC23C)cc1 (stereo unspecified) .
## Result active

## Task Record request — test call for "CC(C)(C)c1cc([N+](=O)[O-])cc([N+](=O)[O-])c1O"
## Result inactive

## Task Recorded call for CCC[As](CCC)SC1CCC2(C)C(=CCC3C4CCC(=O)C4(C)CCC32)C1 (stereo unspecified) ?
## Result active

## Task Record lookup: outcome of this test for "COc1cc(/C=C/c2ccc(OC)c(OC)c2)cc(OC)c1" ?
## Result inactive

## Task Query: recorded result category for CC1=CC2OC3CC4OC(=O)/C=C/C=C/C(=O)OCCC(C)C(O)C(=O)OCC2(CC1O)C4(C)C31CO1 (stereo unspecified) in this test
## Result active

## Task Dear all, I need the recorded test outcome for "CN(C)CCSC1=Nc2ccc(Cl)cc2C(c2ccccc2Cl)=NC1" , thank you.
## Result inactive

## Task How did this test come out for "CCOP(=O)(OCC)Oc1ccc([N+](=O)[O-])cc1" ?
## Result inactive

## Task In this assay, the call recorded for "COc1cc(C=Nc2cc(Br)c(OC)c(Br)c2)ccc1N(CCCl)CCCl" was what?
## Result inactive

## Task Tell me the recorded outcome of this test for O=C1c2ccccc2C(=O)C(Cl)C1Cl (stereo unspecified) .
## Result active

## Task What call does the record list for "[Se]C(=NCc1ccccc1)NCc1ccccc1" ?
## Result inactive

## Task Status in this test for COC1=CC2=CCC3C(CCC4(C)C3CCC4(C)OC(C)=O)C2(C)CC1 (stereo unspecified) ?
## Result active

###

Assign growth inhibition to each entry below.
assay: NCI Yeast Anticancer Drug Screen. Data for the sgs1 mgt1 strain (AID 161);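 also: 0% = growth of cultures given vehicle only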; details: S. cerevisiae sgs1 mgt1 strain, at 50.0 µM, stronger effect = higher value
Compounds without any hit were thinned out: in the full panel of roughly 79,000, 15% have a hit.
Give just the numeric value; % need not be written.

## Task Tell me measured growth inhibition for "CC(C)CCC[C@@H](C)[C@H]1CC[C@H]2[C@@H]3CC[C@H]4C[C@H](NCCCl)CC[C@]4(C)[C@H]3CC[C@]12C" please.
## Result 49.1

## Task Report growth inhibition, nothing else, for this molecule: C[As](C)SCCC(CCCCC(=O)O)S[As](C)C (configuration not stated)
## Result 78.3

## Task Read the entry "C[CH2][Sn]([CH2]C)([O]C(C)=O)[O][Sn]([CH2]C)([CH2]C)[O]C(C)=O" and write its reported growth inhibition.
## Result 84.8

## Task For the molecule CC(=O)OC1CCC2(C)C(CCC3C4=CCC(C5=CC(=O)OC5)C4(C)CCC32)C1 (configuration not stated) , report growth inhibition.
## Result 91.3

## Task Report measured growth inhibition; entry is NC1=NCC(c2ccc(Cl)cc2)O1 (configuration not stated)
## Result 50.2

## Task Tell us which growth inhibition value is on record for CC(=O)Nc1ccccc1[As](O[As](c1ccccc1)c1ccccc1NC(C)=O)c1ccccc1 (configuration not stated)
## Result 99.5

## Task Specify measured growth inhibition for "O=S(=O)([O-])[O-].[Fe+2].c1ccc(/C(=N\Nc2ccccn2)c2ccccn2)cc1" .
## Result 16.1

## Task Indicate the recorded growth inhibition value for this molecule: "FC1(F)C(Cl)=[C]([Hg][C]2=C(Cl)C(F)(F)C(F)(F)C(F)(F)C2(F)F)C(F)(F)C(F)(F)C1(F)F"
## Result 99.7

## Task Name the recorded growth inhibition of the item "Clc1ccc(-c2cc(=[N+]3CC[N+](=c4cc(-c5ccc(Cl)cc5)ss4)CC3)ss2)cc1" in your answer.
## Result 98.9

## Task Look up and report measured growth inhibition for this entry: O=P1(NCCCl)OC(c2ccccc2)=CCN1CCCl (configuration not stated)
## Result 99

## Task Dear colleague, please send me the reported growth inhibition for CC(C)C1(NC(=O)C2C=C3c4cccc5[nH]cc(c45)CC3N(C)C2)OC2(O)C3CCCN3C(=O)C(Cc3ccccc3)N2C1=O (configuration not stated) when you can.
## Result 98.2

## Task Provide growth inhibition value for the following molecule: "c1ccc(C[As+](c2ccccc2)(c2ccccc2)c2ccccc2)cc1"
## Result 98.8

## Task State its growth inhibition for this molecule: C[As](C)SCC1OC2OC(C)(C)OC2C2OC(C)(C)OC12 (configuration not stated)
## Result 92.5

## Task Entry "COc1cc(CC(=O)N2CC2)cc(OC)c1OC" needs its growth inhibition filled in; supply it.
## Result -13.6

## Task Note down growth inhibition recorded for "CC[N+](C)(CC)CCNC(=O)C(O)(c1ccccc1)c1ccccc1"
## Result 96.5

## Task Indicate the recorded growth inhibition value for this molecule: CCOP(=O)(O)C(Nc1ccc(N=Nc2ccccc2)cc1)c1cccc(C(Nc2ccc(N=Nc3ccccc3)cc2)P(=O)(O)OCC)c1 (configuration not stated)
## Result 46.3

## Task Indicate its recorded growth inhibition; the molecule in question is "CO[C@H](/C(C)=C/C=C/C(C)=C/c1coc(C)n1)[C@H](C)[C@H]1C[C@@H](O)[C@@]2(C)O[C@H]2/C=C/[C@@H](C)[C@@H]2C[C@@H](CC(=O)O2)C[C@H]2O[C@@H]2C(=O)O1"
## Result 20.6

## Task Look up and report measured growth inhibition for this entry: CCCCC1C(=O)NC(=S)N(c2ccccc2)C1=O (configuration not stated)
## Result 7.5

## Task Output growth inhibition of "Fc1ccc(NP(=S)(Nc2ccc(F)cc2F)Nc2ccc(F)cc2F)c(F)c1"
## Result 99

## Task Given the molecule "Cc1ccc([PH+](c2ccc(C)cc2)c2ccc(C)cc2)cc1.Cc1ccc([PH+](c2ccc(C)cc2)c2ccc(C)cc2)cc1.[Cl][Hg][Cl]" , write its reported growth inhibition.
## Result 99.5

## Task Give reported growth inhibition value for CCC1(O)C(=O)OCc2c1cc1n(c2=O)Cc2cc3ccccc3nc2-1 (configuration not stated)
## Result 47.5

## Task For "ClCCN(CCCl)CCN1c2ccccc2Sc2ccc(Cl)cc21" , write its growth inhibition.
## Result 99.5

## Task Give the reported growth inhibition for this molecule. "COc1cc(C=Nc2ccc(-c3csc(COc4ccccc4)n3)cc2)ccc1N(CCCl)CCCl"
## Result 86.2

## Task Using known records, supply growth inhibition for "C[Si]1(C)CCCCC2(C1)C(=O)NC(=O)NC2=O"
## Result 51

## Task Please indicate growth inhibition recorded for O=P(Nc1cccc(Cl)c1)(Oc1ccccc1)N(CCCl)CCCl (configuration not stated)
## Result 92.1

## Task Return the recorded growth inhibition value; entry: "CC[CH2][Sn]([CH2]CC)([CH2]CC)[CH2]CCBr"
## Result 99.6

## Task State its growth inhibition: CC(Cc1ccccc1)N(C)Cc1nc(C2CCC([N+](=O)[O-])O2)no1 (configuration not stated)
## Result 85.3

## Task Recall and state the measured growth inhibition for "CCOCCOC(=O)Cc1ccccc1" .
## Result 46.9

## Task Return reported growth inhibition. Input molecule: CC1(C)OCC(COC(=O)C=[N+]=[N-])O1 (configuration not stated)
## Result -7.5

## Task // fetch growth inhibition given entry NC(N)=N/N=C1\C(=O)N(c2ccc(Cl)cc2)C(=O)C1C(=O)Nc1ccc(Cl)cc1 (configuration not stated)
## Result 76.1

## Task Supply recorded growth inhibition for CC(=O)[CH-]C(=O)c1ccccc1.CC(=O)[CH-]C(=O)c1ccccc1.C[C@]12CCC(=O)C=C1CC[C@@H]1C2CC[C@@]2(C)C1CC[C@]2(C)[O-].C[C@]12CCC(=O)C=C1CC[C@@H]1C2CC[C@@]2(C)C1CC[C@]2(C)[O-].Cl.[Ti+4] (some centres not stated) here.
## Result 84.8

## Task Give the reported value of growth inhibition for this record: "CN(C)CCN(C)P12(Oc3ccccc3O1)Oc1c(Cl)c(Cl)c(Cl)c(Cl)c1O2"
## Result 99

## Task State its growth inhibition for this molecule: "O=C1NC(=O)C([N+](=O)[O-])C(=O)N1"
## Result 34.5

## Task Name the recorded growth inhibition of the molecule listed here: "CC(=O)O[C@H]1CC[C@H]2[C@@H]3CC[C@H]4CC(=O)CC[C@@H]4[C@H]3CC[C@]12C"
## Result 88.6

## Task Give growth inhibition for the following molecule: CC(C(=O)C1CCCCC1)[n+]1ccccc1 (configuration not stated)
## Result -2.3

## Task Find the measured growth inhibition of "Cc1cc(N(CCCl)CCCl)ccc1C=Nc1ccc(-c2csc(COc3ccccc3)n2)c(Cl)c1" and report it.
## Result 95

## Task Give reported growth inhibition value for "c1ccc(C(C(=Nc2ccc(Cc3ccc(N=C(C(c4ccccc4)c4ccccc4)N4CC4)cc3)cc2)N2CC2)c2ccccc2)cc1"
## Result 94.1

These measurements were taken from PubChem BioAssay (NCI).
